Hi there, I'd appreciate the recorded melting point for every entry that follows.

Query block: For COc1ccnc(C(=O)Nc2cccc(CC3CC(C)(C)OC(C)(C)C3)c2)c1O [Compound 460] , what is its reported melting point?
Result block: 149 to 153 °C

Query block: Quick one: melting point of CC(C)C(=O)O[C@H]1[C@H](C)OC(=O)[C@@H](NC(=O)c2cccnc2O)COC(=O)[C@@H]1Cc1ccccc1 [Compound 523] ?
Result block: 188 to 190 °C (dec.)

Query block: Could you tell me which melting point is on file for Cc1ccnc(C(=O)NC2C(=O)OC(=O)[C@H](Cc3ccccc3)[C@@H](OC(=O)C(C)C)[C@H](C)OC2=O)c1O (some centres unmarked) [Compound 237] ?
Result block: 122 to 134 °C

Query block: Returns the measured melting point for the input compound. Input: COc1ccnc(C(=O)NC2CC(C)(C)C(OC(=O)c3cccc(Cl)n3)C(C)(C)C2)c1O (centres unmarked) [Compound 269]
Result block: 55 to 56 °C

Query block: Can you share its melting point? I mean this compound: CC1(C)CC(NC(=O)c2ccnnc2O)CC(C)(C)C1 [Compound 539]
Result block: 263 to 265 °C
